# Test system: laboratory-adapted HIV-1 IIIB strain
# Reported Conditions: read-out: MT-2 Cells IC50 (μM ± SD); multi-cycle assay, MT-2 cells, HIV-1 IIIB
// reported IC50 for each item listed
// note: answer is a bare numeric in µM

Prompt: Give reported IC50 value for Cc1nc(C(NC(=O)C(=O)Nc2ccc(Cl)cc2)C2CCCCN2)sc1CCO.O=CO (centres unmarked) [Compound 9]
Response: 4.2

###

# Test system: pNL4-3 gp41 (36G) V38E, N42S (fusion resistant isolate)
# Format: cell-based, HIV-1
# Reported Conditions: subtype B, MT-2, X4, fusion resistant isolate, read-out: IC50 (μM) ± S.D., inhibitory activity on infection
Property Label: IC50 (µM)
// note: answer is a bare numeric in µM

Before answering, review these 3 worked examples.
molecule="Cc1ccc(NC(=O)C(=O)NC(c2nc(C)c(CCO)s2)C2CCCCN2)cc1F.Cl (centres unmarked)" result_unit=µM recorded_number=8.4
molecule="Cc1nc(C(NC(=O)C(=O)Nc2ccc(Cl)c(F)c2)C2CCCCN2)sc1CCO.Cl (centres unmarked)" result_unit=µM recorded_number=3.9
molecule="Cc1nc(C(NC(=O)C(=O)Nc2ccc(Cl)cc2)C2CCCCN2)sc1CO.Cl (centres unmarked)" result_unit=µM recorded_number=5.8

Prompt: Give reported IC50 value for CC1(C)CC(NC(=O)C(=O)Nc2ccc(Cl)cc2)CC(C)(C)N1 [NBD-556, reference compound]
Response: 11

Prompt: Give reported IC50 value for Cc1ccc(NC(=O)C(=O)NC(c2nc(C)c(CO)s2)C2CCCCN2)cc1F.Cl (centres unmarked)
Response: 4.6
